Test system: MS2 coat protein
Assay: apparent KD of MS2 coat protein; designed switch direction (-1 OFF switch, 1 ON switch): -1; higher = weaker reporter binding
Settings: input ligand: FMN 200 uM
experimentalReadout: apparent KD of MS2 coat protein (nM)
Write down the numeric answer in nM and omit the unit.

residues	reported
CGGUGUAACAGAGGAUAUGAGCGCAACUGACGAUCAGAAGGCUGACAUGAGGAUCACCCAUGUGAUUUCUCAAUAUUAUACAUC [Prohibition 89 - Jieux - Exclusion NG 1] (Eterna round: R96, puzzle: Exclusion NG 1)	34.2
UUAGGAUCAGGAUAUGAUGUUUUUUACAUGAGGAUCACCCAUGUUGAUCCUGAUUCAACAUCAGAAGGGAUAAUUU [JR_Ex5_Sub081] (Eterna round: R97, puzzle: Exclusion 5)	85.2
UAACUACAUGAGGAUCACCCAUGUCAGGAUAUGCCGUUAAAUUAACAUCAACAUACGGGUAGAAGGGACAACGU [1st #3] (Eterna round: R97, puzzle: Exclusion 1)	31.5
UUGUGCACGCUGCGGUCCUACAUGAGGAUCACCCAUGUGGUCUGGUGGCGUGGGUCACCGGACUUGGCUCGUCUUGC [salish99_S_TOV1_R5_059] (Eterna round: R97, puzzle: Sensor, turn-off variant 1)	22.5
GACUGGACAGGAUAUGUUCUUGAGCACUUGAGGAUCACCCAAGUCAUCAAGAACUCAGGCACAGAAGGGUUUAUGC [salish99_ex5_r4_011] (Eterna round: R97, puzzle: Exclusion 5)	19.5
ACAAGCUUUACGAUCCUCUACAUGAGGAUCACCCAUGUGCUCGUAUUGUUUAGUACUAUCACGAAAGUGAUAGUACA [Sensor, turn off variant 1 v.5] (Eterna round: R97, puzzle: Sensor, turn-off variant 1)	467

Qu. May I ask what apparent KD of MS2 coat protein has been recorded for AUUGUGUUAGGAUAUGCUUAUGGUGGGUAGUCCAGUAUGGAGUAGAAGGGACAUGAGGAUCACCCAUGUGCUCA [EX4 #38] (Eterna round: R97, puzzle: Exclusion 4) ?
Ans. 215

Qu. Next record, please: GUGACCAUAGGAUAUACAUGAGGAUCACCCAUGUGCAGGCCGAAAGACCUGCGGUCAUGUAGAAGGAUGUAAUU [EX3 A.17] (Eterna round: R97, puzzle: Exclusion 3)
Ans. 19.6

Qu. Also AUCGUAGCAGGAUAUCCGGAGAUUGACAUGAGGAUCACCCAUGUGGUCAUGCCAGCCAAUGGAGAAGGGUUUCGGU [Eternabot (L1) Solution 49] (Eterna round: R97, puzzle: Exclusion 5) , if possible.
Ans. 618
